Measurement target: Mitogen-activated protein kinase 10 (Homo sapiens) (UniProt P53779)
Sequence (P53779 whole entry): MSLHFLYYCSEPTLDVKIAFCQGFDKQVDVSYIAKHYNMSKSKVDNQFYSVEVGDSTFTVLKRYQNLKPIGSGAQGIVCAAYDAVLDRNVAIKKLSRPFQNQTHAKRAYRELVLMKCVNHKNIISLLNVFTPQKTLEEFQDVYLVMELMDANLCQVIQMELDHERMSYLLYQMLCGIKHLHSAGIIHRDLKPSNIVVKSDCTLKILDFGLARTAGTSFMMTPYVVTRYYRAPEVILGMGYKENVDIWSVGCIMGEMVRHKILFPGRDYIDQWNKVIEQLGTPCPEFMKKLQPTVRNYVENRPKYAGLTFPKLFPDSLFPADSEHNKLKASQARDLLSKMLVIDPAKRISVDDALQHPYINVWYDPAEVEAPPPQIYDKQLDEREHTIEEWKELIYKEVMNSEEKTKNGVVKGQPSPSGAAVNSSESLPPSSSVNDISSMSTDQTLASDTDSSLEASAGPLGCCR
Assay: Percentage JNK3 activity remaining in the presence of 0.1uM inhibitor
Parameter measured: Activity (%)
Please give a number only; it is taken to be in %.

Example compounds with recorded Activity:
| Compound | Activity, % |
| --- | --- |
| CC(C)[C@H](CO)Nc1nc(Nc2cccc(Cl)c2)c2ncn(C(C)C)c2n1 [PURVALANOLA] | 100 |
| O=C(NCCCNc1nc(Nc2cccc(NC(=O)N3CCCC3)c2)ncc1I)c1cccs1 | 93 |
| CN(C)C[C@@H]1CCn2cc(c3ccccc32)C2=C(C(=O)NC2=O)c2cn(c3ccccc23)CCO1 | 112 |
| Cn1c2ccccc2c2c3c(c4c5ccccc5n(CCC#N)c4c21)CNC3=O | 79 |
| CC(C)CCN1c2nc(Nc3cc(F)c(O)c(F)c3)ncc2N(C)C(=O)C1C (configuration not stated) | 97 |
| Cn1cc(C2=C(c3cn(CCCSC(=N)N)c4ccccc34)C(=O)NC2=O)c2ccccc21 | 102 |

Moving on to the next compound.
Recorded Activity of Cc1n[nH]c2ccc(-c3cncc(OC[C@@H](N)Cc4c[nH]c5ccccc45)c3)cc12 , please.
86

----------
Measurement target: Dual specificity tyrosine-phosphorylation-regulated kinase 3 (Homo sapiens) (UniProt O43781)
Sequence (O43781 whole entry): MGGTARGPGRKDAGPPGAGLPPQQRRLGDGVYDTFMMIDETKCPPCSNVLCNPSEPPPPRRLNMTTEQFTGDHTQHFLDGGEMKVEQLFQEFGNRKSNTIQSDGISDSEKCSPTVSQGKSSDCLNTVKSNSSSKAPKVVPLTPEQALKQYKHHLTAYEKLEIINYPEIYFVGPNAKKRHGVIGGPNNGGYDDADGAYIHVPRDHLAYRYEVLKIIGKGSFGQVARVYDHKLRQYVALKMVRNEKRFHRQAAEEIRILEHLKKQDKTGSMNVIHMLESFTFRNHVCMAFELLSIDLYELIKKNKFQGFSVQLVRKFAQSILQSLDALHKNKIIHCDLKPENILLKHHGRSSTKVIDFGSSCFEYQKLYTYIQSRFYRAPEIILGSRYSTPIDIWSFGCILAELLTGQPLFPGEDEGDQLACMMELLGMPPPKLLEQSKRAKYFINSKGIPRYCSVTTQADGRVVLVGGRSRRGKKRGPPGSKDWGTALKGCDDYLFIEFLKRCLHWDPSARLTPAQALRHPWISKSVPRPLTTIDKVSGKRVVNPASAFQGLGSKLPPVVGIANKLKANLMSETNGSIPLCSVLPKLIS
Assay: Percentage DYRK3 activity remaining in the presence of 0.1uM inhibitor
Returns fulfilled if the recorded Activity is greater than or equal to 60%, and not fulfilled otherwise.

| Compound | Qualitative label |
| --- | --- |
| CC(C)CCN1c2nc(Nc3cc(F)c(O)c(F)c3)ncc2N(C)C(=O)C1C (stereo not given) | fulfilled |
| O=C(NCCCNc1nc(Nc2cccc(NC(=O)N3CCCC3)c2)ncc1I)c1cccs1 | fulfilled |
| CN(C)C[C@@H]1CCn2cc(c3ccccc32)C2=C(C(=O)NC2=O)c2cn(c3ccccc23)CCO1 | fulfilled |
| CC(C)[C@H](CO)Nc1nc(Nc2cccc(Cl)c2)c2ncn(C(C)C)c2n1 | fulfilled |

Please find the next compound below.
# check: Activity of Cn1cc(C2=C(c3cn(CCCSC(=N)N)c4ccccc34)C(=O)NC2=O)c2ccccc21 is greater than or equal to 60%
not fulfilled

----------
Measurement target: Mitogen-activated protein kinase 8 (Homo sapiens, UniProt P45983)
Sequence (P45983 whole entry): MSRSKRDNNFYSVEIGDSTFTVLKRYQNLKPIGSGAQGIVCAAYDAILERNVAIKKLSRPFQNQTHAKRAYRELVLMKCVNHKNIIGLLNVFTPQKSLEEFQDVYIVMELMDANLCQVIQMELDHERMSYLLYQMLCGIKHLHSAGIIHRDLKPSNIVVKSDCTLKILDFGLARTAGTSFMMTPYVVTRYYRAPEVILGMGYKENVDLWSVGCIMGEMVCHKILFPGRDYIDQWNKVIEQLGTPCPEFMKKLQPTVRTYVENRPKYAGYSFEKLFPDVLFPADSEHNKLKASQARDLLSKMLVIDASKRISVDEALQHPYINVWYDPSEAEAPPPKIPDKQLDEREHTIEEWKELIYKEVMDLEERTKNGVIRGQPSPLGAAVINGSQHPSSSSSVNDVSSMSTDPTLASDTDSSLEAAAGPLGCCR
Assay: Percentage JNK1 activity remaining in the presence of 0.1uM inhibitor
Decision: Activity compared against 90%; not below it gives 1 (yes), below it gives 0 (no).

| Molecular string | Qualitative label |
| --- | --- |
| Cn1cc(C2=C(c3cn(CCCSC(=N)N)c4ccccc34)C(=O)NC2=O)c2ccccc21 | 1 (yes) |
| O=C(NCCCNc1nc(Nc2cccc(NC(=O)N3CCCC3)c2)ncc1I)c1cccs1 | 0 (no) |
| CN(C)C[C@@H]1CCn2cc(c3ccccc32)C2=C(C(=O)NC2=O)c2cn(c3ccccc23)CCO1 | 0 (no) |
| Cn1c2ccccc2c2c3c(c4c5ccccc5n(CCC#N)c4c21)CNC3=O | 0 (no) |

Please examine the following record next.
Is the recorded value of Activity equal to or greater than 90% for this compound? CC(C)[C@H](CO)Nc1nc(Nc2cccc(Cl)c2)c2ncn(C(C)C)c2n1
1 (yes)

----------
Measurement target: Rho-associated protein kinase 2 (Homo sapiens) (UniProt O75116)
Sequence (O75116 whole entry, looked up): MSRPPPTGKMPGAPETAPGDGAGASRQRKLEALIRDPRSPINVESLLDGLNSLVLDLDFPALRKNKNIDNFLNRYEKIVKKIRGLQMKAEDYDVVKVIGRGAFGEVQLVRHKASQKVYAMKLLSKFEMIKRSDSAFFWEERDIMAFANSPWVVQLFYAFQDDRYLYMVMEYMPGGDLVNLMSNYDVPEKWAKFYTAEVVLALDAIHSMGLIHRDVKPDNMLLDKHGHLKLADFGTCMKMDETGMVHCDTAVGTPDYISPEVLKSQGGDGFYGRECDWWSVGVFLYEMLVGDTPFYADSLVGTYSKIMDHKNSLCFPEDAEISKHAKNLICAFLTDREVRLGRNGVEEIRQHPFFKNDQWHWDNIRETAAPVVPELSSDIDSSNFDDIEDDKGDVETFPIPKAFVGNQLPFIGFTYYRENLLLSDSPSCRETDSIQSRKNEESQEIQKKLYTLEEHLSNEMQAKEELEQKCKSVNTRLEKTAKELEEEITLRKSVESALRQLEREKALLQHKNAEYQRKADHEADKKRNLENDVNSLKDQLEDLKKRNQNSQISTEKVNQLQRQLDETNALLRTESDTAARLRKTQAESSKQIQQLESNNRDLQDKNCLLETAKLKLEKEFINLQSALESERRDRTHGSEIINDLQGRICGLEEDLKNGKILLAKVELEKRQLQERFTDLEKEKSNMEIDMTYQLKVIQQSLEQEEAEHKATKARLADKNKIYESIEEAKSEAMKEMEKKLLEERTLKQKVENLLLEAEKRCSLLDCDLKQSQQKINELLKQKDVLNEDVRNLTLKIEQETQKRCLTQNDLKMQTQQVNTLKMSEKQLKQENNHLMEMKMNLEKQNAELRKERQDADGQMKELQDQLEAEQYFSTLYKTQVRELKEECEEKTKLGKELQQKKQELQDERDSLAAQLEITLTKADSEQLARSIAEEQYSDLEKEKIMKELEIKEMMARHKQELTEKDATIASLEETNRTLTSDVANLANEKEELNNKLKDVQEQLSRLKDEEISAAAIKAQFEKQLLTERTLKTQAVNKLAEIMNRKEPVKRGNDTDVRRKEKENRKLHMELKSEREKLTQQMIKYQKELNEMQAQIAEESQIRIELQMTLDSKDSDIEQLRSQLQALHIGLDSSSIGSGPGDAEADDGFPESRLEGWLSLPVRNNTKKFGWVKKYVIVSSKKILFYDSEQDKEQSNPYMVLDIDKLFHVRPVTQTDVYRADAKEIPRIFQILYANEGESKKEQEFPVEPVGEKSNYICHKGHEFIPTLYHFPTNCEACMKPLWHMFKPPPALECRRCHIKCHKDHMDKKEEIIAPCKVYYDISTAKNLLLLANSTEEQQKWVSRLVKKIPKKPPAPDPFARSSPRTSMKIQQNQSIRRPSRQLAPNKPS
Assay: Percentage ROCK2 activity remaining in the presence of 0.1uM inhibitor
Each entry below lists one item and its recorded Activity value.
Could you give me the number in %? Just the number is fine.

Past entries and their recorded results:
| Molecule | Unit symbol | Activity |
| --- | --- | --- |
| CC(C)[C@H](CO)Nc1nc(Nc2cccc(Cl)c2)c2ncn(C(C)C)c2n1 | % | 93 |
| CC(C)CCN1c2nc(Nc3cc(F)c(O)c(F)c3)ncc2N(C)C(=O)C1C (centres undefined) | % | 84 |
| CN(C)C[C@@H]1CCn2cc(c3ccccc32)C2=C(C(=O)NC2=O)c2cn(c3ccccc23)CCO1 | % | 94 |

Give the measured Activity of Cn1cc(C2=C(c3cn(CCCSC(=N)N)c4ccccc34)C(=O)NC2=O)c2ccccc21 .
88

----------
Measurement target: MAP kinase-activated protein kinase 2 (Homo sapiens)
Assay: Percentage MAPKAPK2 activity remaining in the presence of 0.1uM inhibitor
Parameter measured: Activity
# answer = value followed by unit

Please review the following examples before continuing.
| Molecule | Measurement target | Reading |
| --- | --- | --- |
| Cn1cc(C2=C(c3cn(CCCSC(=N)N)c4ccccc34)C(=O)NC2=O)c2ccccc21 | MAP kinase-activated protein kinase 2 (Homo sapiens) | 90% |
| CC(C)CCN1c2nc(Nc3cc(F)c(O)c(F)c3)ncc2N(C)C(=O)C1C (configuration not stated) | MAP kinase-activated protein kinase 2 (Homo sapiens) | 89% |
| Cn1c2ccccc2c2c3c(c4c5ccccc5n(CCC#N)c4c21)CNC3=O | MAP kinase-activated protein kinase 2 (Homo sapiens) | 118% |
| O=C(NCCCNc1nc(Nc2cccc(NC(=O)N3CCCC3)c2)ncc1I)c1cccs1 | MAP kinase-activated protein kinase 2 (Homo sapiens) | 108% |
| Cc1n[nH]c2ccc(-c3cncc(OC[C@@H](N)Cc4c[nH]c5ccccc45)c3)cc12 | MAP kinase-activated protein kinase 2 (Homo sapiens) | 73% |

# input molecule: CC(C)[C@H](CO)Nc1nc(Nc2cccc(Cl)c2)c2ncn(C(C)C)c2n1 ; wanted: its Activity
106%

I have this molecule here, CN(C)C[C@@H]1CCn2cc(c3ccccc32)C2=C(C(=O)NC2=O)c2cn(c3ccccc23)CCO1 , and I need its recorded Activity.
114%

----------
Listed next: entries and their corresponding Activity.
Measurement target: Serine/threonine-protein kinase Nek2 (Homo sapiens)
Assay: Percentage NEK2a activity remaining in the presence of 0.1uM inhibitor
Give your result in % as a bare value.

| Compound | Parameter measured | Reading |
| --- | --- | --- |
| O=C(NCCCNc1nc(Nc2cccc(NC(=O)N3CCCC3)c2)ncc1I)c1cccs1 | Activity | 95 |
| CN(C)C[C@@H]1CCn2cc(c3ccccc32)C2=C(C(=O)NC2=O)c2cn(c3ccccc23)CCO1 | Activity | 91 |
| Cn1c2ccccc2c2c3c(c4c5ccccc5n(CCC#N)c4c21)CNC3=O | Activity | 87 |

Please report the recorded Activity for CC(C)CCN1c2nc(Nc3cc(F)c(O)c(F)c3)ncc2N(C)C(=O)C1C (configuration not stated) .
98

Consider the compound shown here: Cn1cc(C2=C(c3cn(CCCSC(=N)N)c4ccccc34)C(=O)NC2=O)c2ccccc21 What is its recorded Activity?
84

Recorded Activity of CC(C)[C@H](CO)Nc1nc(Nc2cccc(Cl)c2)c2ncn(C(C)C)c2n1 [PURVALANOLA] , please.
95

Entry Cc1n[nH]c2ccc(-c3cncc(OC[C@@H](N)Cc4c[nH]c5ccccc45)c3)cc12 has what Activity?
95

----------
Measurement target: Serine/threonine-protein kinase Nek6 (Homo sapiens) (UniProt Q9HC98)
Sequence (Q9HC98 whole entry): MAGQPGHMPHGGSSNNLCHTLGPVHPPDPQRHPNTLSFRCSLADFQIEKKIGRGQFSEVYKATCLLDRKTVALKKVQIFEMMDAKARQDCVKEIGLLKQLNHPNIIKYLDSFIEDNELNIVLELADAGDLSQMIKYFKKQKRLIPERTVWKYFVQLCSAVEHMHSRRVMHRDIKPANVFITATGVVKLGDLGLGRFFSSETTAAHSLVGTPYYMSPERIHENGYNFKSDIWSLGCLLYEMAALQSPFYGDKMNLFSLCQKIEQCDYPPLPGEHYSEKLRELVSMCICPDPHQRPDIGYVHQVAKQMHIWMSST
Assay: Percentage NEK6 activity remaining in the presence of 0.1uM inhibitor
Parameter measured: Activity (%)
Please state the figure in %; there is no need to write the unit.

As a guide, the following entries are already answered.
| Compound | Measurement target | Reading |
| --- | --- | --- |
| Cn1c2ccccc2c2c3c(c4c5ccccc5n(CCC#N)c4c21)CNC3=O | Serine/threonine-protein kinase Nek6 (Homo sapiens) (UniProt Q9HC98) | 96 |
| Cn1cc(C2=C(c3cn(CCCSC(=N)N)c4ccccc34)C(=O)NC2=O)c2ccccc21 | Serine/threonine-protein kinase Nek6 (Homo sapiens) (UniProt Q9HC98) | 97 |
| CC(C)CCN1c2nc(Nc3cc(F)c(O)c(F)c3)ncc2N(C)C(=O)C1C (configuration not stated) | Serine/threonine-protein kinase Nek6 (Homo sapiens) (UniProt Q9HC98) | 115 |
| CC(C)[C@H](CO)Nc1nc(Nc2cccc(Cl)c2)c2ncn(C(C)C)c2n1 | Serine/threonine-protein kinase Nek6 (Homo sapiens) (UniProt Q9HC98) | 91 |
| CN(C)C[C@@H]1CCn2cc(c3ccccc32)C2=C(C(=O)NC2=O)c2cn(c3ccccc23)CCO1 | Serine/threonine-protein kinase Nek6 (Homo sapiens) (UniProt Q9HC98) | 93 |

Find the measured Activity: item Cc1n[nH]c2ccc(-c3cncc(OC[C@@H](N)Cc4c[nH]c5ccccc45)c3)cc12 , target or system Serine/threonine-protein kinase Nek6 (Homo sapiens) (UniProt Q9HC98).
95

Look up Activity with Serine/threonine-protein kinase Nek6 (Homo sapiens) (UniProt Q9HC98) for this compound: O=C(NCCCNc1nc(Nc2cccc(NC(=O)N3CCCC3)c2)ncc1I)c1cccs1
98

----------
Recorded measurements of Activity, one per entry
Measurement target: Cyclin-dependent kinase 2/cyclin A (Homo sapiens) (UniProt P24941+P20248+P78396)
Assay: Percentage CDK2-cyclinA activity remaining in the presence of 0.1uM inhibitor
Type: protein-complex assay
Condition description: filed as antagonist
State just the number; it will be interpreted in %.

| Molecular string | Reading |
| --- | --- |
| Cn1c2ccccc2c2c3c(c4c5ccccc5n(CCC#N)c4c21)CNC3=O | 8 |
| O=C(NCCCNc1nc(Nc2cccc(NC(=O)N3CCCC3)c2)ncc1I)c1cccs1 | 10 |
| CC(C)[C@H](CO)Nc1nc(Nc2cccc(Cl)c2)c2ncn(C(C)C)c2n1 | 9 |

Let's switch to this compound now.
// query Activity value for entry Cn1cc(C2=C(c3cn(CCCSC(=N)N)c4ccccc34)C(=O)NC2=O)c2ccccc21
3
